test system: Klebsiella pneumoniae; assay: Antibacterial activity against Klebsiella pneumoniae MTCC 109 assessed as zone of inhibition at 100 uL after 24 hrs by agar well-diffusion method; format: functional
# key: entry, value: inhibition zone (IZ)
Numeric answer only, unit mm assumed.

| Mol smiles | Measured parameter | Unit info | Observed measurement |
| --- | --- | --- | --- |
| O=c1oc2ccccc2c(O)c1C(c1ccccc1)c1c(O)c2ccccc2oc1=O | inhibition zone (IZ) | mm | 21 |
| CCOc1ccc(C(c2c(O)c3ccccc3oc2=O)c2c(O)c3ccccc3oc2=O)cc1 | inhibition zone (IZ) | mm | 19 |

Dear colleague, I am looking for the recorded inhibition zone (IZ) of the following compound: CC1(C)CC(=O)C(C(C2=C(O)CC(C)(C)CC2=O)c2cccc(F)c2)=C(O)C1
0

Dear colleague, I am looking for the recorded inhibition zone (IZ) of the following compound: CC1(C)CC(=O)C(C(C2=C(O)CC(C)(C)CC2=O)c2ccc([N+](=O)[O-])cc2)=C(O)C1
14

Dear colleague, I am looking for the recorded inhibition zone (IZ) of the following compound: O=c1oc2ccccc2c(O)c1C(c1ccco1)c1c(O)c2ccccc2oc1=O
17

----------
system: Streptococcus pyogenes; test: Antibacterial activity against Streptococcus pyogenes MTCC 1925 assessed as zone of inhibition at 100 uL after 24 hrs by agar well-diffusion method; assay type: functional
Use 10 mm as the dividing line for inhibition zone (IZ), with the line itself on the T side and lower values as F.

| Compound | Assigned class |
| --- | --- |
| O=c1oc2ccccc2c(O)c1C(c1ccccc1Cl)c1c(O)c2ccccc2oc1=O | T |
| Cc1[nH][nH]c(=O)c1C(c1ccc(Br)cc1)C1C(=O)NC(=O)NC1=O (centres undefined) | T |
| Cc1[nH][nH]c(=O)c1C(c1cccc([N+](=O)[O-])c1)C1C(=O)NC(=O)NC1=O (centres undefined) | T |

Reported inhibition zone (IZ) at or above 10 mm? CC1(C)CC(=O)C(C(C2=C(O)CC(C)(C)CC2=O)c2ccc(Cl)cc2)=C(O)C1
F

Reported inhibition zone (IZ) at or above 10 mm? CN(C)c1ccc(C(C2=C(O)CC(C)(C)CC2=O)C2=C(O)CC(C)(C)CC2=O)cc1
F

Reported inhibition zone (IZ) at or above 10 mm? COc1ccc(C(c2c(C)[nH][nH]c2=O)C2C(=O)NC(=O)NC2=O)cc1OC (centres undefined)
T

Reported inhibition zone (IZ) at or above 10 mm? O=c1oc2ccccc2c(O)c1C(c1cccc(F)c1)c1c(O)c2ccccc2oc1=O
T

Reported inhibition zone (IZ) at or above 10 mm? CCOc1ccc(C(c2c(O)c3ccccc3oc2=O)c2c(O)c3ccccc3oc2=O)cc1
T

Reported inhibition zone (IZ) at or above 10 mm? O=c1oc2ccccc2c(O)c1C(c1ccc([N+](=O)[O-])cc1)c1c(O)c2ccccc2oc1=O
T

Reported inhibition zone (IZ) at or above 10 mm? COc1cc(C(C2=C(O)CC(C)(C)CC2=O)C2=C(O)CC(C)(C)CC2=O)cc(OC)c1OC
F

Reported inhibition zone (IZ) at or above 10 mm? CC1(C)CC(=O)C(C(C2=C(O)CC(C)(C)CC2=O)c2ccccc2)=C(O)C1
F

Reported inhibition zone (IZ) at or above 10 mm? CCOc1ccc(C(C2=C(O)CC(C)(C)CC2=O)C2=C(O)CC(C)(C)CC2=O)cc1
F

Reported inhibition zone (IZ) at or above 10 mm? COc1ccc(C(c2c(O)c3ccccc3oc2=O)c2c(O)c3ccccc3oc2=O)cc1OC
T
